Where these numbers come from: patent US20160297884A1

Target under test: T1, Human BCMA (human, UniProt Q02223 1-54, limits assumed)
T1 construct: Soluble analyte in SPR; construct not described; also called huBCMA; B-cell maturation antigen
T1 sequence (looked up): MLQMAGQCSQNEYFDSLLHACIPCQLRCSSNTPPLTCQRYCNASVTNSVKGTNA
Method: SPR, IgG immobilised, 37 C
Procedure: All experiments were performed on a Bio-Rad Proteon XPR36 surface Plasmon resonance biosensor (Bio-Rad, Hercules, Calif.). […] The analysis temperature for the immobilization was 25° C. and the running buffer was HBS-T+(10 mM HEPES, 150 mM NaCl, 0.05% Tween-20, pH 7.4). […] The analysis temperature for the BCMA binding analysis was 37° C. or 25° C. in a running buffer of HBS-T+, supplemented with 1 mg/mL BSA. […] Immediately after the 50 nM BCMA injection, dissociation was monitored for 2 hours. […]
Reported metric: kon (M⁻¹ s⁻¹)
Field format: number, assumed M⁻¹ s⁻¹, no unit text.

Recorded results for 2 binders are shown here.
L3.PY/H2.QR (antibody, V domains shown, IgG) VH: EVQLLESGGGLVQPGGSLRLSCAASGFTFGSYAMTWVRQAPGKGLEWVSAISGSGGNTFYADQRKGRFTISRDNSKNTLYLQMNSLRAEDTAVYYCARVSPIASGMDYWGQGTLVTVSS VL: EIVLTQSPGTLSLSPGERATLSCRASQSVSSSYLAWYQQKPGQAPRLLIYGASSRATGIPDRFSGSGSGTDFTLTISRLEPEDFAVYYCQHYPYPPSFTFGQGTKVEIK :: 2.56e+06
L3.PY/L1.FF/H2.QR (antibody, V domains shown, IgG) VH: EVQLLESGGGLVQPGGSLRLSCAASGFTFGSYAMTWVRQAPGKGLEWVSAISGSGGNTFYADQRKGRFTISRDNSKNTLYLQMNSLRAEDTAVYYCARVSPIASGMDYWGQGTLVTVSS VL: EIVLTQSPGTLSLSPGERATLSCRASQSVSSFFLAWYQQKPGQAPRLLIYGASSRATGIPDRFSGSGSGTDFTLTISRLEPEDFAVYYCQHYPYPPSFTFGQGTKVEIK :: 3.47e+06

// returns reported kon for input L3.PY/L1.PS/H2.HA (antibody, V domains shown, IgG) VH: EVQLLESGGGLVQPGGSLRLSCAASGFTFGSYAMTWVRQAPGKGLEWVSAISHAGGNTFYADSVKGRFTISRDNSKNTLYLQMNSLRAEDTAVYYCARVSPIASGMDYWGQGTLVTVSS VL: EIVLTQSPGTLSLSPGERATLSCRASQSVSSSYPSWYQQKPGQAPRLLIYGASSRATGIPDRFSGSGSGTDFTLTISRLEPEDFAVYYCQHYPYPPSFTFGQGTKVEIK
3.3e+06
